- Test system: CCRIS mutagenicity, Ames/micronucleus/aberration tests
- Measurement Notes: CCRIS mutagenicity studies
- Cond: Test System: AMES SALMONELLA TYPHIMURIUM; Strain/Indicator: TA1535; Metabolic Activation: NONE; Method: STANDARD PLATE
- Text: The CCRIS database contains chemical records with carcinogenicity, mutagenicity, tumor promotion, and tumor inhibition test results. It was developed by the National Cancer Institute (NCI). Data are derived from studies cited in primary journals, current awareness tools, NCI reports, and other sources. Test results have been reviewed by experts in carcinogenesis and mutagenesis. CCRIS provides historical information from the years 1985 - 2011. It is no longer updated. […]
The source made the active and inactive calls. The rule behind the calls is not given here.
The reply should name one outcome from y (active), n (inactive)

As a guide, the following entries are already answered.
Compound Smiles: C[Si](C)(C)O[Si](C)(C)C
Assigned Label: n
//
Compound Smiles: Oc1c(Br)cc(Br)cc1Br
Assigned Label: n
//
Compound Smiles: C=C(C)C(C)=O
Assigned Label: n
//
Compound Smiles: N#CC(Br)Br
Assigned Label: n
//
Compound Smiles: CCCCN(N=O)/C(N)=N/[N+](=O)[O-]
Assigned Label: y
//
Compound Smiles: CN1CC[C@@]2(C)c3cc(O)ccc3N(C)[C@@H]12
Assigned Label: n
//
Compound Smiles: CCCO
Assigned Label: n
//
Compound Smiles: CN1CCN(C2=Nc3cc(Cl)ccc3Nc3ccccc32)CC1
Assigned Label: n
//
Compound Smiles: [N-]=[N+]=NC[C@@H](O)[C@H](O)[C@H](O)[C@@H](O)CO
Assigned Label: y
//
Compound Smiles: C=CC(=O)OCCCCCCOC(=O)C=C
Assigned Label: n

Query: recorded result category for O=[N+]([O-])C1=Cc2c3c1cccc3cc1ccc3ccccc3c21 in this test
n

Origin of values: PubChem BioAssay AID1259407
